- METHOD: chemical genetic growth profiling, strain panel (AID 1159580);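 further: tested at 20 µM; growth read once vehicle control cultures reached saturation at 30 °C; 1 = growth at the plate median or of vehicle wells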
- EXPERIMENTAL_SETUP: S. cerevisiae deletion strains, growth OD, locus YKL190W, strain CNB1
The campaign covered roughly 5,500 compounds. About 2,000 (36%) were called active. Not shown: some 18% with an inconclusive outcome. No stated cut-off is given here; in the data, active means normalized growth mostly below about 0.91 (no sharp cut-off); inconclusive means no clear call, values can overlap the other calls; inactive means mostly above about 0.92. The list shows a part of the results.
Answer with one of the outcomes active, inactive

Task: Status in this test for CCOC(=O)C(=O)C1(C(=O)OCC)Oc2cc(OC)cc(OC)c2C(=O)C1c1ccccc1 (configuration not stated) ?
Result: inactive

Task: Now consider CCN(CCO)CCCC(C)Nc1ccnc2cc(Cl)ccc12 (configuration not stated) and answer again.
Result: inactive

Task: Now consider "CN(C)C(=S)SSC(=S)N(C)C" and answer again.
Result: active

Task: Now consider CC(NCCc1ccc(O)cc1)C(O)c1ccc(O)cc1 (configuration not stated) and answer again.
Result: inactive

Task: Now consider CNC(C)[C@H](O)c1ccccc1 (some centres not stated) and answer again.
Result: inactive

Task: Now consider "C[N+](C)(C)CCOC(N)=O" and answer again.
Result: inactive

Task: Now consider CC(CCc1ccccc1)NC(C)C(O)c1ccc(O)cc1 (configuration not stated) and answer again.
Result: inactive

Task: Now consider "Cc1ccc(C)c(NC(=S)N(CCc2ccccc2)CCc2ccccn2)c1" and answer again.
Result: inactive

Task: Now consider "COc1ccc(S(=O)(=O)Nc2ccccc2Oc2ccc(Cl)cc2Cl)cc1OC" and answer again.
Result: inactive

Task: Now consider Cc1cccc(C)c1NC(=O)C(C)Oc1ccc(Cl)cc1Cl (configuration not stated) and answer again.
Result: inactive

Task: Now consider CCCCCCCCNC(C)C(O)c1ccc(SC(C)C)cc1 (configuration not stated) and answer again.
Result: active

Task: Now consider CCOC(=O)C(Cc1ccc(O)cc1)NC(C)=O (configuration not stated) and answer again.
Result: inactive

###

- METHOD: chemical genetic growth profiling, strain panel (AID 1159580);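 further: tested at 20 µM; growth read once vehicle control cultures reached saturation at 30 °C; 1 = growth at the plate median or of vehicle wells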
- EXPERIMENTAL_SETUP: S. cerevisiae deletion strains, growth OD, strain TSCII, stronger effect = lower value
About 2,000 (36%) of roughly 5,500 compounds were called active. About 18% were inconclusive and are not listed. Some of the results follow.
Could you please report measured normalized growth for the items listed next?
Write the value as a bare number.

Task: I would be grateful if you could share the reported normalized growth for "N#Cc1ccc(S(=O)(=O)Nc2ccccc2Oc2ccc(Cl)cc2Cl)cc1" .
Result: 0.99

Task: Now consider "O=C(N/C=C/c1ccsc1)Nc1cc(C(F)(F)F)cc(C(F)(F)F)c1" and answer again.
Result: 0.973

Task: Now consider "Cc1c(Cc2ccc(F)cc2)c(=O)oc2cc(O)ccc12" and answer again.
Result: 0.978

Task: Now consider "Nc1ccccc1SCc1c(Cl)cccc1Cl" and answer again.
Result: 0.952

Task: Now consider "Cc1ccc(-c2csc(-c3cccnc3)n2)c(C)c1" and answer again.
Result: 0.948

Task: Now consider "Cc1ccc2nc(-c3ccc(Cl)cc3)cn2c1" and answer again.
Result: 0.959

###

- METHOD: chemical genetic growth profiling, strain panel (AID 1159580);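 further: tested at 20 µM; growth read once vehicle control cultures reached saturation at 30 °C; 1 = growth at the plate median or of vehicle wells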
- EXPERIMENTAL_SETUP: S. cerevisiae deletion strains, growth OD, locus YOR080W, strain dia2, stronger effect = lower value
In all, about 5,500 compounds went through this assay and about 2,000 (36%) were called active. About 18% were inconclusive and are not listed. The list shows a part of the results.
OBSERVED_PROPERTY: normalized growth
Write the value as a bare number.

Task: I would be grateful if you could share the reported normalized growth for COCCc1ccc(OCC(O)CNC(C)C)cc1 (stereo unspecified) .
Result: 0.985

Task: Now consider "CN(C)C(=S)SSC(=S)N(C)C" and answer again.
Result: 0.067

Task: Now consider CC1=C(CC(=O)O)c2cc(F)ccc2/C1=C\c1ccc(S(C)=O)cc1 (stereo unspecified) and answer again.
Result: 1.04

Task: Now consider "CN1CCC(=C2c3ccccc3Sc3ccccc32)CC1" and answer again.
Result: 1.03

Task: Now consider "O=C(O)c1cc2ccccc2[nH]1" and answer again.
Result: 0.99

Task: Now consider CCOC(=O)C(=O)C1(C(=O)OCC)Oc2cc(OC)cc(OC)c2C(=O)C1c1ccccc1 (stereo unspecified) and answer again.
Result: 0.965

Task: Now consider NC(=O)C(c1ccccc1)(c1ccccc1)C1CCN(CCc2ccc3c(c2)CCO3)C1 (stereo unspecified) and answer again.
Result: 1.01

Task: Now consider "O=C(O)c1cc2ccccc2c(Cc2c(O)c(C(=O)O)cc3ccccc23)c1O" and answer again.
Result: 1

Task: Now consider "Oc1cc(Cl)ccc1Oc1ccc(Cl)cc1Cl" and answer again.
Result: 0.0614

Task: Now consider "O=C(O)c1c2ccccc2cc2ccccc12" and answer again.
Result: 1.01

Task: Now consider CC1CC2C3CCC4=CC(=O)C=C[C@]4(C)[C@@]3(F)[C@@H](O)C[C@]2(C)[C@@]1(O)C(=O)CO (stereo partly specified) and answer again.
Result: 0.957

Provenance of the data: PubChem BioAssay AID1159580
